- System: Heliothis virescens (Tobacco Budworm)
- TEST_DESCRIPTION: Heliothis virescens egg test on artificial diet in 24-well microtiter plate
- Assay type: in vivo
- TEST_PARAMETERS: 96 h, 200 ppm (concentration in well 18 ppm), eggs 0-24 h old, 4 days, egg mortality, larval mortality, growth regulation
# pest or weed control at 200 ppm listing for each entry below

COMPOUND	pest or weed control at 200 ppm
O=C(Nc1ccc(C(F)(F)F)nc1C1CC[N+]([O-])(C/C=C/c2ccc(C(F)(F)F)cc2)CC1)c1ccnc(Cl)c1 (stereo not drawn) [Compound R3]	≥ 80%

// query Return pest or weed control at 200 ppm for the following compound: O=C(Nc1cc(F)c(F)nc1C1CCN(C/C=C/c2ccc(Cl)cc2)CC1)c1ccnc(Cl)c1 [Compound N1]
// result ≥ 80%

// query Return pest or weed control at 200 ppm for the following compound: O=C(Nc1cc(Cl)c(Br)nc1C1CCN(C/C=C/c2ccc(Cl)cc2)CC1)c1ccnc(Cl)c1 [Compound E7]
// result ≥ 80%

* * *

- System: Plutella xylostella (Diamond Back Moth)
- TEST_DESCRIPTION: Plutella xylostella L2 larvae test on artificial diet in 24-well microtiter plate
- Assay type: in vivo
- TEST_PARAMETERS: 144 h, 200 ppm (concentration in well 18 ppm), 6 days, larval mortality, growth regulation
PROPERTY_LABEL: pest or weed control at 200 ppm

Worked examples, 2 molecules total:
MOLECULE	EXPERIMENTAL_VALUE
O=C(Nc1cc(Cl)c(Br)nc1C1CCN(C/C=C/c2ccc(Cl)cc2)CC1)c1ccnc(Cl)c1	≥ 80%
O=C(Nc1cc(Cl)c(Cl)nc1C1CCN(C/C=C/c2ccc(Cl)cc2)CC1)c1ccnc(Cl)c1	≥ 80%

Now let's try a different one.
// query Return pest or weed control at 200 ppm for the following molecule: O=C(Nc1cc(C(F)(F)F)c(Cl)nc1C1CC[N+]([O-])(C/C=C/c2ccc(Br)cc2)CC1)c1ccnc(Cl)c1 (stereo not drawn)
// result ≥ 80%

FYI, the data here is from patent US8193362B2.
